- Test system: mES-D3 cells and BALB/c-3T3 cells
- protocol: Classification of embryotoxicity by the ECVAM prediction model
- Set-up: species or system murine
- measurement_context: prediction model from mean IC50 3T3, IC50 ES and ID50
property_name: Classification of the embryotoxicity according to the PM (in words)

{"columns": ["molecule", "assay_result"],
 "data": [
  ["O=c1[nH]cc(F)c(=O)[nH]1 [5-fluorouracil, reference compound]", "strong embryotoxicity"],
  ["C=CCc1ccc(O)c(OC)c1 [Eugenol, eugenol]", "strong embryotoxicity"],
  ["CC(C)c1cc2c(c(O)c1O)[C@@]1(C(=O)O)CCCC(C)(C)[C@@H]1CC2 [Carnosic acid]", "weak embryotoxicity"],
  ["CCCCCCCCOC(=O)c1ccccc1C(=O)OCCCCCCCC [Dioctyl phthalate, dioctyl phthalate]", "weak embryotoxicity"]
]}
